B1: HDV Ribozyme (parent)
chain: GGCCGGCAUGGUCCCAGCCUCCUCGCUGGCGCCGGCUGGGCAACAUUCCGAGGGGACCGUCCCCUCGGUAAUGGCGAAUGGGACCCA

Variants of: B1
measurement_protocol: self-cleavage, relative activity (ratio to wild type); higher = more cleavage; co-transcriptional
quantity_kind: self-cleavage

A selection of reference data follows.
A42G G52C    0.733
C18U C48U    0.639
G74C C85G    0.0791
G50A A71U    0.881
C14G G68C    0.383
G34U C49A    0.151
C15A C48A    0.597
A51G G81U    0.356

I have 3 variants here; please give me self-cleavage for each one.
1. G29U U46G
2. C4U A77U
3. G40C C58U

[0.0386, 0.415, 0.354]

I have 3 variants here; please give me self-cleavage for each one.
1. G35U C86G
2. C26G G38A
3. C3U G25C

0.397
0.0978
0.113

I have 2 variants here; please give me self-cleavage for each one.
1. G34C U47A
2. C57U C75A

1. 0.161
2. 0.095
